TEST PROTOCOL: Cytotoxicity against MDCK cells assessed as reduction in cell viability by CellTiter-Glo assay
Format: cell-based, Canis lupus familiaris
PARTICULARS: dog
List of CC50 values.
METRIC: CC50

molecular_string=CC1(C)CC[C@]2(C(=O)NCCCCc3cn(Cc4cc(Cn5cc(CCCCNC(=O)[C@]67CCC(C)(C)C[C@H]6C6=CC[C@@H]8[C@@]9(C)CC[C@H](O)C(C)(C)[C@@H]9CC[C@@]8(C)[C@]6(C)CC7)nn5)cc(Cn5cc(CCCCNC(=O)[C@]67CCC(C)(C)C[C@H]6C6=CC[C@@H]8[C@@]9(C)CC[C@H](O)C(C)(C)[C@@H]9CC[C@@]8(C)[C@]6(C)CC7)nn5)c4)nn3)CC[C@]3(C)C(=CC[C@@H]4[C@@]5(C)CC[C@H](O)C(C)(C)[C@@H]5CC[C@]43C)[C@@H]2C1 result="> 100 µM"
molecular_string=CC1(C)CC[C@]2(C(=O)NCCc3cn(CC(CO)(Cn4cc(CCNC(=O)[C@]56CCC(C)(C)C[C@H]5C5=CC[C@@H]7[C@@]8(C)CC[C@H](O)C(C)(C)[C@@H]8CC[C@@]7(C)[C@]5(C)CC6)nn4)Cn4cc(CCNC(=O)[C@]56CCC(C)(C)C[C@H]5C5=CC[C@@H]7[C@@]8(C)CC[C@H](O)C(C)(C)[C@@H]8CC[C@@]7(C)[C@]5(C)CC6)nn4)nn3)CC[C@]3(C)C(=CC[C@@H]4[C@@]5(C)CC[C@H](O)C(C)(C)[C@@H]5CC[C@]43C)[C@@H]2C1 result="> 100 µM"

###

TEST PROTOCOL: Cytotoxicity against MDCK cells assessed as reduction in cell viability by CellTiter-Glo assay
Type: cell-based, Canis lupus familiaris
PARTICULARS: dog
METRIC: CC50

molecular_string=CC1(C)CC[C@]2(C(=O)NCCOCCn3cc(OCc4cc(COc5cn(CCOCCNC(=O)[C@]67CCC(C)(C)C[C@H]6C6=CC[C@@H]8[C@@]9(C)CC[C@H](O)C(C)(C)[C@@H]9CC[C@@]8(C)[C@]6(C)CC7)nn5)cc(COc5cn(CCOCCNC(=O)[C@]67CCC(C)(C)C[C@H]6C6=CC[C@@H]8[C@@]9(C)CC[C@H](O)C(C)(C)[C@@H]9CC[C@@]8(C)[C@]6(C)CC7)nn5)c4)nn3)CC[C@]3(C)C(=CC[C@@H]4[C@@]5(C)CC[C@H](O)C(C)(C)[C@@H]5CC[C@]43C)[C@@H]2C1 result="> 100 µM"

###

TEST PROTOCOL: Selectivity ratio of CC50 for MDCK cells to IC50 for Influenza A virus A/WSN/33(H1N1) infected in MDCK cells
Format: toxicity, cell-based
PARTICULARS: dog, read-out: Ratio CC50/IC50
List of selectivity ratio values.
METRIC: selectivity ratio

molecular_string=CC1(C)CC[C@]2(C(=O)O)CC[C@]3(C)C(=CC[C@@H]4[C@@]5(C)CC[C@H](O)C(C)(C)[C@@H]5CC[C@]43C)[C@@H]2C1 metric="selectivity ratio" result="> 1.38"
molecular_string=CC1(C)CC[C@]2(C(=O)NCCCCc3cn(Cc4cc(Cn5cc(CCCCNC(=O)[C@]67CCC(C)(C)C[C@H]6C6=CC[C@@H]8[C@@]9(C)CC[C@H](O)C(C)(C)[C@@H]9CC[C@@]8(C)[C@]6(C)CC7)nn5)cc(Cn5cc(CCCCNC(=O)[C@]67CCC(C)(C)C[C@H]6C6=CC[C@@H]8[C@@]9(C)CC[C@H](O)C(C)(C)[C@@H]9CC[C@@]8(C)[C@]6(C)CC7)nn5)c4)nn3)CC[C@]3(C)C(=CC[C@@H]4[C@@]5(C)CC[C@H](O)C(C)(C)[C@@H]5CC[C@]43C)[C@@H]2C1 metric="selectivity ratio" result="> 435"
molecular_string=CC1(C)CC[C@]2(C(=O)NCc3cn(Cc4cc(Cn5cc(CNC(=O)[C@]67CCC(C)(C)C[C@H]6C6=CC[C@@H]8[C@@]9(C)CC[C@H](O)C(C)(C)[C@@H]9CC[C@@]8(C)[C@]6(C)CC7)nn5)cc(Cn5cc(CNC(=O)[C@]67CCC(C)(C)C[C@H]6C6=CC[C@@H]8[C@@]9(C)CC[C@H](O)C(C)(C)[C@@H]9CC[C@@]8(C)[C@]6(C)CC7)nn5)c4)nn3)CC[C@]3(C)C(=CC[C@@H]4[C@@]5(C)CC[C@H](O)C(C)(C)[C@@H]5CC[C@]43C)[C@@H]2C1 metric="selectivity ratio" result="> 14.6"

###

TEST PROTOCOL: Selectivity ratio of CC50 for MDCK cells to IC50 for Influenza A virus A/WSN/33(H1N1) infected in MDCK cells
Assay type: toxicity, cell-based
PARTICULARS: dog, read-out: Ratio CC50/IC50
List of selectivity ratio values.
METRIC: selectivity ratio

compound=CC1(C)CC[C@]2(C(=O)NCCc3cn(CC(CO)(Cn4cc(CCNC(=O)[C@]56CCC(C)(C)C[C@H]5C5=CC[C@@H]7[C@@]8(C)CC[C@H](O)C(C)(C)[C@@H]8CC[C@@]7(C)[C@]5(C)CC6)nn4)Cn4cc(CCNC(=O)[C@]56CCC(C)(C)C[C@H]5C5=CC[C@@H]7[C@@]8(C)CC[C@H](O)C(C)(C)[C@@H]8CC[C@@]7(C)[C@]5(C)CC6)nn4)nn3)CC[C@]3(C)C(=CC[C@@H]4[C@@]5(C)CC[C@H](O)C(C)(C)[C@@H]5CC[C@]43C)[C@@H]2C1 result="> 34.8"
compound="CCOC(=O)C1=C[C@@H](OC(CC)CC)[C@H](NC(C)=O)[C@@H](N)C1 [OSELTAMIVIR PHOSPHATE]" result="> 55"
compound=CC1(C)CC[C@]2(C(=O)NCCCCCc3cn(CC(CO)(Cn4cc(CCCCCNC(=O)[C@]56CCC(C)(C)C[C@H]5C5=CC[C@@H]7[C@@]8(C)CC[C@H](O)C(C)(C)[C@@H]8CC[C@@]7(C)[C@]5(C)CC6)nn4)Cn4cc(CCCCCNC(=O)[C@]56CCC(C)(C)C[C@H]5C5=CC[C@@H]7[C@@]8(C)CC[C@H](O)C(C)(C)[C@@H]8CC[C@@]7(C)[C@]5(C)CC6)nn4)nn3)CC[C@]3(C)C(=CC[C@@H]4[C@@]5(C)CC[C@H](O)C(C)(C)[C@@H]5CC[C@]43C)[C@@H]2C1 result="> 175"
compound=CC1(C)CC[C@]2(C(=O)NCCOCCn3cc(OCc4cc(COc5cn(CCOCCNC(=O)[C@]67CCC(C)(C)C[C@H]6C6=CC[C@@H]8[C@@]9(C)CC[C@H](O)C(C)(C)[C@@H]9CC[C@@]8(C)[C@]6(C)CC7)nn5)cc(COc5cn(CCOCCNC(=O)[C@]67CCC(C)(C)C[C@H]6C6=CC[C@@H]8[C@@]9(C)CC[C@H](O)C(C)(C)[C@@H]9CC[C@@]8(C)[C@]6(C)CC7)nn5)c4)nn3)CC[C@]3(C)C(=CC[C@@H]4[C@@]5(C)CC[C@H](O)C(C)(C)[C@@H]5CC[C@]43C)[C@@H]2C1 result="> 5.98"
compound=CC1(C)CC[C@]2(C(=O)NCCCCc3cn(CC(CO)(Cn4cc(CCCCNC(=O)[C@]56CCC(C)(C)C[C@H]5C5=CC[C@@H]7[C@@]8(C)CC[C@H](O)C(C)(C)[C@@H]8CC[C@@]7(C)[C@]5(C)CC6)nn4)Cn4cc(CCCCNC(=O)[C@]56CCC(C)(C)C[C@H]5C5=CC[C@@H]7[C@@]8(C)CC[C@H](O)C(C)(C)[C@@H]8CC[C@@]7(C)[C@]5(C)CC6)nn4)nn3)CC[C@]3(C)C(=CC[C@@H]4[C@@]5(C)CC[C@H](O)C(C)(C)[C@@H]5CC[C@]43C)[C@@H]2C1 result="> 3.99"

###

TEST PROTOCOL: Selectivity index, ratio of CC50 for MDCK cells to IC50 for antiviral activity against Influenza A virus (A/Hong Kong/4801/2014 (H3N2))
Type: toxicity
PARTICULARS: dog, read-out: Ratio CC50/IC50
METRIC: selectivity ratio

molecular_string=CC1(C)CC[C@]2(C(=O)NCCCc3cn(CC(CO)(Cn4cc(CCCNC(=O)[C@]56CCC(C)(C)C[C@H]5C5=CC[C@@H]7[C@@]8(C)CC[C@H](O)C(C)(C)[C@@H]8CC[C@@]7(C)[C@]5(C)CC6)nn4)Cn4cc(CCCNC(=O)[C@]56CCC(C)(C)C[C@H]5C5=CC[C@@H]7[C@@]8(C)CC[C@H](O)C(C)(C)[C@@H]8CC[C@@]7(C)[C@]5(C)CC6)nn4)nn3)CC[C@]3(C)C(=CC[C@@H]4[C@@]5(C)CC[C@H](O)C(C)(C)[C@@H]5CC[C@]43C)[C@@H]2C1 result="> 58.5"
